Give koff for every item shown.
TESTED SYSTEM: human PD-L1/His fusion protein (human, UniProt Q9NZQ7 19-239)
Sequence (Q9NZQ7 19-239 limits assumed): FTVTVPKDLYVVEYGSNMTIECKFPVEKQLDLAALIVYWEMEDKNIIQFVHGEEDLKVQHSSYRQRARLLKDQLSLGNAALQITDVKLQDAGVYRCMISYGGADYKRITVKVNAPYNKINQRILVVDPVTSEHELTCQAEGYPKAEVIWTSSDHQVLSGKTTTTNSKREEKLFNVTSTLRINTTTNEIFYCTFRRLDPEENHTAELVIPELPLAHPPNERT
METHOD SUMMARY: BLI Octet RED96, antibody on AHC sensor, single conc. PD-L1/His; test group 3
Answers are plain numbers, in s⁻¹.

Solved cases below.
1. HuEM0005-87-13 (antibody, human IgG1, V domains shown) VH: EVQLVQSGAEVKKPGASVKVSCKASGYTFTDYYINWVRQAPGQGLEWIGETIPNTGGTTYNQKFKARVTLTVDKSTSTVYMELSSLRSEDTAVYYCARYQSGSPFAYWGQGTTVTVSS VL: EIVMTQSPATLSVSPGERATLSCKASQNVGTAVAWYQQKPGQAPRLLIYSASNRYTGVPARFSGSGSGTEFTLTISSLQSEDFAVYYCQQHYSTPYTFGGGTKLEIK :: 0.001
2. HuEM0005-90-14 (antibody, human IgG1, V domains shown) VH: EVQLVQSGAEVKKPGASVKVSCKASGYTFTSHSINWVRQATGQGLEWIGYMYIGNGYTEYNEKFKGRATLTSNTSISTAYMELSSLRSEDTAVYYCAKITPVVAPYVMDYWGQGTSVTVSS VL: DIQMTQSPSFLSASVGDRVTITCKASQDVGTAVAWYQQKPGKAPKLLIYWASTRHTGVPDRFTGSGSGTEFTLTISSLQPEDFATYYCQQYSSYPYTFGQGTKLEIK :: 0.000376

**Q:** Would you mind telling me what koff value was observed for HuEM0005-87-16 (antibody, human IgG1, V domains shown) VH: EVQLVQSGAEVKKPGASVKVSCKASGYTFTDYYINWVRQAPGQGLEWMGETIPNTGGTTYNQKFKARVTMTVDTSTSTVYMELSSLRSEDTAVYYCARYQSGSPFAYWGQGTTVTVSS VL: EIVMTQSPATLSVSPGERATLSCKASQNVGTAVAWYQQKPGQAPRLLIYSASNRYTGVPDRFTGSGSGTEFTLTISSLQSEDFAVYYCQQHYSTPYTFGGGTKLEIK ?
**A:** 0.000932
